Target: h-GABA-A α5β3γ2 (Homo sapiens, UniProt P18507+P31644)
Sequence (P31644 32-462): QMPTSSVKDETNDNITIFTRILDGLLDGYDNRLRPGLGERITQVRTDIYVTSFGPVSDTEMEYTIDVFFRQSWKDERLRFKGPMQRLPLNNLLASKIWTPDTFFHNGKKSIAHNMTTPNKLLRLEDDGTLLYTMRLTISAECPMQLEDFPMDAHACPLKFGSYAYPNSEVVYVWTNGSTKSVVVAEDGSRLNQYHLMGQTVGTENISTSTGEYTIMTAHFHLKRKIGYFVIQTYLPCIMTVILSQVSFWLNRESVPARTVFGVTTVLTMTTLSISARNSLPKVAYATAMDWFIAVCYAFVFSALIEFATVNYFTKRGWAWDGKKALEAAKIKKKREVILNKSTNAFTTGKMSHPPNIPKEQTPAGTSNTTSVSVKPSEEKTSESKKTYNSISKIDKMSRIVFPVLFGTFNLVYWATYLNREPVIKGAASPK
Sequence (P28472 26-473 partner): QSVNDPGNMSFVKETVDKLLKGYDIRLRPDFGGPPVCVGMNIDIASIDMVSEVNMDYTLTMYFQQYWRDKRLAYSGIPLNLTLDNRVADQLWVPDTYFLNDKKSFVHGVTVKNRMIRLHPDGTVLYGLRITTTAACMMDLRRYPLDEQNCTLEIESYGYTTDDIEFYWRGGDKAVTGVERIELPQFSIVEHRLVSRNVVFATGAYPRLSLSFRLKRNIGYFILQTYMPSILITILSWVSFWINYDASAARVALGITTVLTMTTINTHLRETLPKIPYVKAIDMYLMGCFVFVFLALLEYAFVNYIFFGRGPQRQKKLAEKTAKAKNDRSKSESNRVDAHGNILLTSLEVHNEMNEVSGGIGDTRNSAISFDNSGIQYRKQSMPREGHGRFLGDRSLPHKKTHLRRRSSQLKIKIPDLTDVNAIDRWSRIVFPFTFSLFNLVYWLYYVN
Sequence (P18507 40-475): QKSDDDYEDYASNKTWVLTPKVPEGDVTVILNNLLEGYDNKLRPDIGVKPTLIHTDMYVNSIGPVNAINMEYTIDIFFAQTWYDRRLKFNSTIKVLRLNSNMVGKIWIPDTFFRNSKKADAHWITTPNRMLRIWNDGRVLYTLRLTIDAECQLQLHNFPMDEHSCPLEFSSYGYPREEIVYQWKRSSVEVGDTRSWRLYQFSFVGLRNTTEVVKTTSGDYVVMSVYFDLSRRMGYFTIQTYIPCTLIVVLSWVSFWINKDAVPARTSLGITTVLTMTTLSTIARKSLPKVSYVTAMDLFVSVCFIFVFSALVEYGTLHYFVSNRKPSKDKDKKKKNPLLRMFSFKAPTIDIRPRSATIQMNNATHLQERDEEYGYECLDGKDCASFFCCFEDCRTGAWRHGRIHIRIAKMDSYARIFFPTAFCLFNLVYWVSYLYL
Experiment: Two-electrode voltage clamp electrophysiology in Xenopus laevis oocytes expressing GABAA receptors, modulation of GABA EC20 current
Format: cell-based
Set-up: host or cells: Xenopus laevis oocytes micro-injected with RNA transcripts of the subunits
Settings: % modulation of GABA EC20 = 100*(Fold increase-1); Table 1
Form field: Efficacy (GABA) % (one value per entry).

| COMPOUND | Efficacy (GABA) % (%) |
| --- | --- |
| Cc1onc(-c2ncc(C(F)(F)F)cn2)c1Cn1ncc(N2CC3(CCC(F)CO3)C2)cc1=O (single isomer, unassigned) | 65 |
| Cc1ccc(-c2noc(C)c2Cn2ncc(N3CC(OCC4CC4)C3)cc2=O)cn1 | 147 |
| Cc1ccc(-c2noc(C)c2Cn2ncc(N3CC(Oc4ccc(Cl)cn4)C3)cc2=O)cn1 | 187 |
| Cc1ccc(-c2noc(C)c2Cn2ncc(N3CC4(CCC(F)CO4)C3)cc2=O)nn1 (single isomer, unassigned) [Example 319] | 91 |
| Cc1ccc(-c2noc(C)c2Cn2ncc(N3CC(C#N)C3)cc2=O)cn1 | 134 |
| Cc1ccc(-c2noc(C)c2Cn2ncc(N3CC(Oc4ccccc4F)C3)cc2=O)cn1 | 120 |
| Cc1onc(-c2ncc(Cl)cc2F)c1Cn1ncc(N2C[C@@H](C)O[C@@H](C)C2)cc1=O | 135 |

Taken from patent US11840528B2.
